- test-system: ~100 representative kinases (Homo sapiens, UniProt P68400)
- Construct: Recombinant protein kinase domains with a concentration of 2 μM
- Sequence (P68400 whole entry, the tested form may be a part): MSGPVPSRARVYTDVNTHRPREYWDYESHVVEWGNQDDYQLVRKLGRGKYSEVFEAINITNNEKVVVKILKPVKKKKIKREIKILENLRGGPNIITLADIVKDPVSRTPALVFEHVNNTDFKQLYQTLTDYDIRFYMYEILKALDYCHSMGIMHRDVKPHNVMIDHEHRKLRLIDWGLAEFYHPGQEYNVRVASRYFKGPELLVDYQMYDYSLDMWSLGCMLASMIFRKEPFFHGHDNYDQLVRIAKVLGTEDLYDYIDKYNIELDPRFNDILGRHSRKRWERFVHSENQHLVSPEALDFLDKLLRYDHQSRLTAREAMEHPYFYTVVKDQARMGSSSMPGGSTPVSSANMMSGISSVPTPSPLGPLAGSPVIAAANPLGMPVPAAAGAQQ
- assay-comment: DSF 100 kinase selectivity screen;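 also: compound tested at 20 µM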
- Type: binding
- condition-summary: Protein CK2A1; average of three replicates
# Lookup of reported dTm keyed by entry

compound="Cc1ccc(-n2nc(C(C)(C)C)cc2NC(=O)Nc2cccc(-c3c[nH]c4ncnc(N5CCOCC5)c34)c2)cc1 [Compound 29]" experimental_endpoint=dTm readout_value="0.69 K"
compound="O=C(Nc1cccc(-c2c[nH]c3ncnc(N4CCOCC4)c23)c1)C1(C(=O)Nc2ccc(F)c(Br)c2F)CC1 [Compound 26]" experimental_endpoint=dTm readout_value="-1.70 K"
compound="COc1cc(NC(=O)C2(C(=O)Nc3cccc(-c4c[nH]c5ncnc(N6CCOCC6)c45)c3)CC2)ccc1F [Compound 21]" experimental_endpoint=dTm readout_value="1.43 K"
compound="O=C(Nc1cccc(-c2c[nH]c3ncnc(N4CCOCC4)c23)c1)C1(C(=O)Nc2ccc(F)c(Cl)c2)CC1 [Compound 18]" experimental_endpoint=dTm readout_value="-0.75 K"
compound="O=C(Nc1cc(F)cc(Br)c1)C1(C(=O)Nc2cccc(-c3c[nH]c4ncnc(N5CCOCC5)c34)c2)CC1 [Compound 27]" experimental_endpoint=dTm readout_value="-1.92 K"
compound="O=C(Nc1cccc(-c2c[nH]c3ncnc(N4CCOCC4)c23)c1)C1(C(=O)Nc2ccc(F)c(F)c2)CC1 [Compound 17]" experimental_endpoint=dTm readout_value="-0.81 K"
compound="Cc1cc(NC(=O)C2(C(=O)Nc3ccc(F)cc3)CC2)cc(-c2c[nH]c3ncnc(N4CCOCC4)c23)c1 [Compound 6]" experimental_endpoint=dTm readout_value="0.12 K"
compound="CC(C)(C)c1cccc(NC(=O)C2(C(=O)Nc3cccc(-c4c[nH]c5ncnc(N6CCOCC6)c45)c3)CC2)c1 [Compound 22]" experimental_endpoint=dTm readout_value="-1.17 K"

The compound listed as O=C(Nc1cccc(-c2c[nH]c3ncnc(N4CCOCC4)c23)c1)C1(C(=O)Nc2ccc(F)c(Br)c2)CC1 [Compound 19] has a reported dTm of 0.10 K

The compound listed as COc1cc(C(=O)N2CCOCC2)c(F)cc1Nc1nc(N(C)C)c2c(Cl)c[nH]c2n1 [Compound 36] shows dTm equal to 2.03 K

# compound Cc1ccc(-n2nc(C(C)(C)C)cc2NC(=O)Nc2cccc(-c3c[nH]c4nc(Cl)nc(N5CCOCC5)c34)c2)cc1 [Compound 30] ; its dTm = 0.59 K

====

- test-system: ~100 representative kinases (Homo sapiens)
- Construct: Recombinant protein kinase domains with a concentration of 2 μM
- assay-comment: DSF 100 kinase selectivity screen;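 also: compound tested at 20 µM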
- Assay type: binding
- condition-summary: protein PKMYT1; average of three replicates
experimental-endpoint: dTm (K)
Field format: number, assumed K, no unit text.

The following compounds have reported results that may help.
compound="Cc1ccc(C(=O)Nc2ccc(CN3CCN(C)CC3)c(C(F)(F)F)c2)cc1C#Cc1c[nH]c2ncnc(N3CCOCC3)c12 [Compound 1]" test_system="~100 representative kinases (Homo sapiens)" experimental_endpoint=dTm result_units=K readout_value=0.41
compound="CNC(=O)c1cc(Oc2ccc(NC(=O)Nc3cc(C(C)(C)C)nn3-c3ccc4ncccc4c3)c(F)c2)ccn1 [Rebastinib, reference compound]" test_system="~100 representative kinases (Homo sapiens)" experimental_endpoint=dTm result_units=K readout_value=0.77
compound="O=C(Nc1ccccc1)C1(C(=O)Nc2cccc(-c3c[nH]c4ncnc(N5CCOCC5)c34)c2)CC1 [Compound 12]" test_system="~100 representative kinases (Homo sapiens)" experimental_endpoint=dTm result_units=K readout_value=0.71
compound="COc1cc(S(C)(=O)=O)ccc1Nc1nc(N(C)C)c2c(Cl)c[nH]c2n1 [Compound 37]" test_system="~100 representative kinases (Homo sapiens)" experimental_endpoint=dTm result_units=K readout_value=-0.22
compound="Cc1ccc(-n2nc(C(C)(C)C)cc2NC(=O)Nc2cccc(-c3c[nH]c4nc(Cl)nc(N5CCOCC5)c34)c2)cc1 [Compound 30]" test_system="~100 representative kinases (Homo sapiens)" experimental_endpoint=dTm result_units=K readout_value=-0.62

Let us move to another entry and its dTm.
Lab note: measured dTm of O=C(Nc1cccc(-c2c[nH]c3ncnc(N4CCOCC4)c23)c1)C1(C(=O)Nc2ccc(F)c(Cl)c2)CC1 [Compound 18] was -1.54

====

- test-system: ~100 representative kinases (Homo sapiens, UniProt P19784)
- Construct: Recombinant protein kinase domains with a concentration of 2 μM
- Sequence (P19784 whole entry, the tested form may be a part): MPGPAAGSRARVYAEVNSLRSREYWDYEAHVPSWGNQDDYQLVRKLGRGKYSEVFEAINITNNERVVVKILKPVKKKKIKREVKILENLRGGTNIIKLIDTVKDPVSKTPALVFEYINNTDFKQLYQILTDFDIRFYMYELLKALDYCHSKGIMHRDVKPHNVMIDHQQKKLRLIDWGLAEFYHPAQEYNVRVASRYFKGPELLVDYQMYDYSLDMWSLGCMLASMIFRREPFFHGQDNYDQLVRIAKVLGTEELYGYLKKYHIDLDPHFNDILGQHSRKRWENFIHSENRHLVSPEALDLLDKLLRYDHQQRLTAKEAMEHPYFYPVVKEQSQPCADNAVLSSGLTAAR
- assay-comment: DSF 100 kinase selectivity screen;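 also: compound tested at 20 µM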
- Format: binding
- condition-summary: Protein CK2A2; average of three replicates
experimental-endpoint: dTm
Could you give the number and then its unit, please?

Would you please look over these solved cases?
smiles_data=O=C(Nc1cccc(-c2c[nH]c3ncnc(N4CCOCC4)c23)c1)C1(C(=O)Nc2cccc3c2CCC3)CC1 readout_value="1.05 K"
smiles_data=CCNc1nc(Nc2cc(F)c(C(=O)N3CCOCC3)cc2OC)ncc1C(F)(F)F readout_value="2.65 K"
smiles_data=O=C(Nc1cccc(-c2c[nH]c3ncnc(N4CCOCC4)c23)c1)C1(C(=O)Nc2ccc(F)c(F)c2)CC1 readout_value="8.40 K"

Field dTm (~100 representative kinases (Homo sapiens, UniProt P19784)), entry COc1cc(C(=O)N2CCOCC2)c(F)cc1Nc1nc(N(C)C)c2c(Cl)c[nH]c2n1 : 1.00 K

Item: O=C(Nc1cccc(-c2c[nH]c3ncnc(N4CCOCC4)c23)c1)C1(C(=O)Nc2cc(Br)c(F)cc2F)CC1 | System: ~100 representative kinases (Homo sapiens, UniProt P19784) | dTm: 1.70 K

The molecule O=C(Nc1cc(F)cc(Br)c1)C1(C(=O)Nc2cccc(-c3c[nH]c4ncnc(N5CCOCC5)c34)c2)CC1 , tested on ~100 representative kinases (Homo sapiens, UniProt P19784), showed dTm of 2.42 K

Cc1cc(NC(=O)C2(C(=O)Nc3cccc(-c4c[nH]c5ncnc(N6CCOCC6)c45)c3)CC2)ccc1F tested on ~100 representative kinases (Homo sapiens, UniProt P19784) gave dTm: 1.33 K

====

- test-system: ~100 representative kinases (Homo sapiens, UniProt Q9P289)
- Construct: Recombinant protein kinase domains with a concentration of 2 μM
- Sequence (Q9P289 whole entry, the tested form may be a part): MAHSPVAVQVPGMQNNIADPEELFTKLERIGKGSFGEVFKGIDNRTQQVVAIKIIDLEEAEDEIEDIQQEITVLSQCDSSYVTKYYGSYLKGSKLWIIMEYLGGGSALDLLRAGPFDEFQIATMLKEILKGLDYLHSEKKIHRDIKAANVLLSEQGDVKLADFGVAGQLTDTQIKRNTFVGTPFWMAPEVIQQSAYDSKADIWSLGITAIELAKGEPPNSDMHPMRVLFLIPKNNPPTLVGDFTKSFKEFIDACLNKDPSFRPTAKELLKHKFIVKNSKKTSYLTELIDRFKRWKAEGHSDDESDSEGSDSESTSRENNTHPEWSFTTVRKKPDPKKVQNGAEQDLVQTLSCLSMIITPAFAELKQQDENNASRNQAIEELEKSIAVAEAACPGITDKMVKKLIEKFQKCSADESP
- assay-comment: DSF 100 kinase selectivity screen;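 also: compound tested at 20 µM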
- Format: binding
- condition-summary: protein MST4; average of three replicates
experimental-endpoint: dTm (K)
Please give a number only; it is taken to be in K.

molecule=CC(C)(C)c1cc(NC(=O)Nc2cccc(-c3c[nH]c4ncnc(N5CCOCC5)c34)c2)n(-c2ccc3ncccc3c2)n1 test_system="~100 representative kinases (Homo sapiens, UniProt Q9P289)" result_units=K readout_value=6.29

Value sought: dTm, system ~100 representative kinases (Homo sapiens, UniProt Q9P289), item Cn1cc(-c2c[nH]c3ncnc(N4CCOCC4)c23)cc1C#N . Result: 1.97

GET /values?item= COc1cc2c(Oc3ccc(NC(=O)C4(C(=O)Nc5ccc(F)cc5)CC4)cc3F)ccnc2cc1OCCCN1CCOCC1 [Foretinib, reference compound] &system= ~100 representative kinases (Homo sapiens, UniProt Q9P289) returns dTm: 3.65

~100 representative kinases (Homo sapiens, UniProt Q9P289) assay, molecule COc1cc(S(C)(=O)=O)ccc1Nc1nc(N(C)C)c2c(Cl)c[nH]c2n1 , recorded dTm = -1.65

Noted dTm for O=C(Nc1cccc(-c2c[nH]c3ncnc(N4CCOCC4)c23)c1)C1(C(=O)Nc2ccc(F)c(Cl)c2)CC1 , tested on ~100 representative kinases (Homo sapiens, UniProt Q9P289): 6.98

GET /values?item= CC(=O)N1CCN(c2nc(Cl)nc3[nH]cc(-c4cccc(NC(=O)Nc5cc(C(C)(C)C)nn5-c5ccc(C)cc5)c4)c23)CC1 &system= ~100 representative kinases (Homo sapiens, UniProt Q9P289) returns dTm: -1.15

Tested system ~100 representative kinases (Homo sapiens, UniProt Q9P289); dTm recorded for CCSc1nc(NC)c2c(-c3cccc(NC(=O)Nc4cc(C(C)(C)C)nn4-c4ccc(C)cc4)c3)c[nH]c2n1 was -2.75

dTm of O=C(Nc1ccc(F)cc1)C1(C(=O)Nc2cccc(-c3c[nH]c4ncnc(N5CCOCC5)c34)c2)CC1 , assay on ~100 representative kinases (Homo sapiens, UniProt Q9P289), is 5.41

Note to self: dTm of O=C(Nc1cccc(-c2c[nH]c3ncnc(N4CCOCC4)c23)c1)c1cccn(-c2ccc(F)cc2)c1=O with ~100 representative kinases (Homo sapiens, UniProt Q9P289) was 1.45

====

# dTm listing for each entry below
- test-system: ~100 representative kinases (Homo sapiens, UniProt O14733)
- Construct: Recombinant protein kinase domains with a concentration of 2 μM
- Sequence (O14733 whole entry, the tested form may be a part): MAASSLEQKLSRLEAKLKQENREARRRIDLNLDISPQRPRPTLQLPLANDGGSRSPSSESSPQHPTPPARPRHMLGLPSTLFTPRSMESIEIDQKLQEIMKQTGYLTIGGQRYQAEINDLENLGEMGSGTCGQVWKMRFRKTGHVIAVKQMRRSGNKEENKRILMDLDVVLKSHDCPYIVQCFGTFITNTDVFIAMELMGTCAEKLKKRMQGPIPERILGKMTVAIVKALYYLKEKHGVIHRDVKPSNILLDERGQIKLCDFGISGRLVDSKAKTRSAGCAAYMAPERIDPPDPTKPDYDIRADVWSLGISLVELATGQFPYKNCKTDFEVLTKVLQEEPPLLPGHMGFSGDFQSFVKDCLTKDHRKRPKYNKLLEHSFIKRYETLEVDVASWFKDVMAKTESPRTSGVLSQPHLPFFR
- assay-comment: DSF 100 kinase selectivity screen;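 also: compound tested at 20 µM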
- Type: binding
- condition-summary: protein MAP2K7; average of three replicates

molecule="O=C(Nc1cccc(-c2c[nH]c3ncnc(N4CCOCC4)c23)c1)C1(C(=O)Nc2ccc(F)cc2F)CC1 [Compound 23]" test_system="~100 representative kinases (Homo sapiens, UniProt O14733)" readout_value="3.10 K"
molecule="Cc1ccc(C(=O)Nc2ccc(CN3CCN(C)CC3)c(C(F)(F)F)c2)cc1C#Cc1cnc2[nH]ncc2c1 [GZD-824, reference compound]" test_system="~100 representative kinases (Homo sapiens, UniProt O14733)" readout_value="4.88 K"
molecule="CCSc1nc(NC)c2c(-c3cccc(NC(=O)Nc4cc(C(C)(C)C)nn4-c4ccc(C)cc4)c3)c[nH]c2n1 [Compound 32]" test_system="~100 representative kinases (Homo sapiens, UniProt O14733)" readout_value="0.27 K"
molecule="Cc1ccc(NC(=O)C2(C(=O)Nc3cccc(-c4c[nH]c5ncnc(N6CCOCC6)c45)c3)CC2)cc1 [Compound 14]" test_system="~100 representative kinases (Homo sapiens, UniProt O14733)" readout_value="2.82 K"
molecule="O=C(Nc1cc(F)cc(Br)c1)C1(C(=O)Nc2cccc(-c3c[nH]c4ncnc(N5CCOCC5)c34)c2)CC1 [Compound 27]" test_system="~100 representative kinases (Homo sapiens, UniProt O14733)" readout_value="3.41 K"
molecule="O=C(Nc1cccc(-c2c[nH]c3ncnc(N4CCOCC4)c23)c1)C1(C(=O)Nc2ccc(F)c(Br)c2)CC1 [Compound 19]" test_system="~100 representative kinases (Homo sapiens, UniProt O14733)" readout_value="4.93 K"

Just so you know, measured dTm for O=C(Nc1cccc(-c2c[nH]c3ncnc(N4CCOCC4)c23)c1)C1(C(=O)Nc2ccc(F)c(F)c2)CC1 [Compound 17] came out at 4.27 K
